B1: TPR t1 (parent)
chain: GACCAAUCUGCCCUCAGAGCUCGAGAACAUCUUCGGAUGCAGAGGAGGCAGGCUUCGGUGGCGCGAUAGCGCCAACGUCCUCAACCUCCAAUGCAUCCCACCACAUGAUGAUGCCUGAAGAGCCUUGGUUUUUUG

# Variants of: B1
# ASSAY_METHOD_TEXT: polymerase ribozyme fitness, log enrichment relative to wild type (log ratio); higher = more active; in vitro selection for triplet polymerase activity
QUANTITY: polymerase ribozyme fitness (log ratio)

Request: Given the variant G60A U125A , what is its reported polymerase ribozyme fitness (log ratio)?
Result: -0.369

Request: Given the variant C31G C70U C82G G117C , what is its reported polymerase ribozyme fitness (log ratio)?
Result: -7.1

Request: Given the variant C11G C34U A84C , what is its reported polymerase ribozyme fitness (log ratio)?
Result: -3.61

Request: Given the variant C56U C62U C101U G122A , what is its reported polymerase ribozyme fitness (log ratio)?
Result: -2.35

Request: Given the variant C94A C101G , what is its reported polymerase ribozyme fitness (log ratio)?
Result: -2.45

Request: Given the variant C12A G45C , what is its reported polymerase ribozyme fitness (log ratio)?
Result: -1.32

Request: Given the variant C56A C62A C79A , what is its reported polymerase ribozyme fitness (log ratio)?
Result: -6.19

Request: Given the variant C12U G51A U78C , what is its reported polymerase ribozyme fitness (log ratio)?
Result: -2.26

Request: Given the variant G10C C12A G51A G127C , what is its reported polymerase ribozyme fitness (log ratio)?
Result: -4.99

Request: Given the variant A118U U133A , what is its reported polymerase ribozyme fitness (log ratio)?
Result: -1.21

Request: Given the variant C12A A29U C56U , what is its reported polymerase ribozyme fitness (log ratio)?
Result: -3.33
